- EXPERIMENTAL SYSTEM: UniProtKB A0A2S9PLG4
- Sequence (A0A2S9PLG4 1-277): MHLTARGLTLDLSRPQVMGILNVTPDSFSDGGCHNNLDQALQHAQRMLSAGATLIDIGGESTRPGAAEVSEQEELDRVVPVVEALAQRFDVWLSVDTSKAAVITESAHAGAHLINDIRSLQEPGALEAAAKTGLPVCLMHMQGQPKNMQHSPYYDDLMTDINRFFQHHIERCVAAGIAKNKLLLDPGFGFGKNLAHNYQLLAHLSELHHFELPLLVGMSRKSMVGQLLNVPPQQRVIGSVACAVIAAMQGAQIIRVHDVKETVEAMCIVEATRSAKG
MEASURED PARAMETER: IC50 (µM)
Answers are plain numbers, in µM.

Give the measured IC50 of FC(F)(F)c1ccc(/C=N/Cc2ccc(C(F)(F)F)cc2)cc1 .
31

---

- EXPERIMENTAL SYSTEM: BaDHPS (Bacillus anthracis)
- Sequence (Q81VW8 1-280): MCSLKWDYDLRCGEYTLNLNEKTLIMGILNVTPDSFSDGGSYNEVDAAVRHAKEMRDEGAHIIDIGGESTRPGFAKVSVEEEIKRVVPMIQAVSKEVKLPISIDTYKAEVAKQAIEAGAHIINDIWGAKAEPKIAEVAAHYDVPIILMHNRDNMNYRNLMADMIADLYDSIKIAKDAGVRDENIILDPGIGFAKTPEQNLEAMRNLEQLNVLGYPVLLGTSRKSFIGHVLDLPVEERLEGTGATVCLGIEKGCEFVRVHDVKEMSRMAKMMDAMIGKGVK
- PROCEDURE SUMMARY: biochemical
- Format: binding
MEASURED PARAMETER: Kd
Enter the number, and then the unit.

Suppose we examine the molecule FC(F)(F)c1ccc(/C=N/Cc2ccc(C(F)(F)F)cc2)cc1 [Compound 11] ; what Kd value has been reported?
130 µM

---

- EXPERIMENTAL SYSTEM: SaDHPS (Staphylococcus aureus)
- Sequence (O05701 whole entry): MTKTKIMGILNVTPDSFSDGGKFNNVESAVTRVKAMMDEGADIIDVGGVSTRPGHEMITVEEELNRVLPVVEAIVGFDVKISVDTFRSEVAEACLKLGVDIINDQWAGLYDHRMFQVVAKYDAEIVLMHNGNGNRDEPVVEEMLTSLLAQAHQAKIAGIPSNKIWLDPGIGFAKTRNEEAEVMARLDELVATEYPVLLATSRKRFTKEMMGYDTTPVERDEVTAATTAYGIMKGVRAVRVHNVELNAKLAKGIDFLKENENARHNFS
MEASURED PARAMETER: pIC50
Answers are plain numbers, as −log10 of the molar value.

Fill blank: measured pIC50 of the compound FC(F)(F)c1ccc(/C=N/Cc2ccc(C(F)(F)F)cc2)cc1 is ____.
4.77

Data provenance: paper PMC4076017
